test system: A549/taxol; experiment: MTT antiproliferative assay, Taxol-resistant A549; format: cell-based; conditions: MTT, 72 h; Taxol-resistant A549; read-out: IC50 A549/taxol
Field 'label' (enum: Y / N). Set to Y when IC50 is strictly under 1 µM; else N.

CC(C)=CCC[C@]1(C)C=Cc2c(O)c3c(c(CC=C(C)C)c2O1)O[C@]12C(=C[C@@H]4C[C@H]1C(C)(C)O[C@@]2(C/C=C(/C)C(=O)O)C4=O)C3=O [GA, gambogic acid, reference compound]    Y
CC(C)=CCC12OC(C)(C)C3CC(C=C4C(=O)c5c(OC(=O)N(C(C)C)C(C)C)cccc5OC431)C2=O (stereo not drawn) [Compound 8k]    N

Enquiry: Please determine if CC(=O)Oc1cccc2c1C(=O)C1=CC3CC4C(C)(C)OC(CC=C(C)C)(C3=O)C14O2 (stereo not drawn) [Compound 1] is below 1 µM in terms of IC50.
Return: N

Enquiry: Please determine if CC(C)=CCC12OC(C)(C)C3CC(C=C4C(=O)c5c(OC(=O)N6CC=CC6)cccc5OC431)C2=O (stereo not drawn) [Compound 8h] is below 1 µM in terms of IC50.
Return: N

Enquiry: Please determine if CC(C)=CCC12OC(C)(C)C3CC(C=C4C(=O)c5c(OC(=O)N6CCCCC6)cccc5OC431)C2=O (stereo not drawn) [Compound 8f] is below 1 µM in terms of IC50.
Return: N

Enquiry: Please determine if CCN(CC)C(=O)Oc1cccc2c1C(=O)C1=CC3CC4C(C)(C)OC(CC=C(C)C)(C3=O)C14O2 (stereo not drawn) [Compound 8b] is below 1 µM in terms of IC50.
Return: Y

---

test system: A549; assay: MTT antiproliferative assay, A549; settings: Homo sapiens, A549, 72 h, read-out: IC50 A549, MTT, 72 h
Each item that follows carries a reported pIC50.
pIC50 is defined as minus the log10 of a concentration measured in mol/L.

CC(C)=CCC12OC(C)(C)C3CC(C=C4C(=O)c5c(OC(=O)N6CCC(N7CCCCC7)CC6)cccc5OC431)C2=O (stereo not shown) [Compound 8l]    5.00
CCN(C)C(=O)Oc1cccc2c1C(=O)C1=CC3CC4C(C)(C)OC(CC=C(C)C)(C3=O)C14O2 (stereo not shown) [Compound 8c]    5.52
CC(C)=CCC12OC(C)(C)C3CC(C=C4C(=O)c5c(OC(=O)N6CCN(C)CC6)cccc5OC431)C2=O (stereo not shown) [Compound 8m]    5.00

Proceeding to the next compound to report its pIC50.
Enquiry: # return recorded pIC50 for entry CC(C)=CCC12OC(C)(C)C3CC(C=C4C(=O)c5c(OC(=O)N(C)C)cccc5OC431)C2=O (stereo not shown) [Compound 8a]
Return: 5.51

---

biological target: Recombinant human Hsp90 protein; assay: Hsp90 ATPase activity assay; details: ADP detection, ATP 100 μM
quantity-measured: IC50 (nM)
Number in nM, nothing else.

Enquiry: # return recorded IC50 for entry CO[C@H]1/C=C\C=C(/C)C(=O)NC2=CC(=O)C(NCCN(C)C)=C(C[C@@H](C)C[C@H](OC)[C@H](O)[C@@H](C)/C=C(\C)[C@@H]1OC(N)=O)C2=O
Return: 919

---

system: HepG2; assay: MTT antiproliferative assay, HepG2; details: Homo sapiens, HepG2, 72 h, read-out: IC50 HepG2
quantity-measured: IC50 (nM)
Number in nM, nothing else.

Below: 3 molecules and their reported IC50.
CC(C)=CCC12OC(C)(C)C3CC(C=C4C(=O)c5c(cccc5OS(C)(=O)=O)OC431)C2=O (stereo not shown)    1410
CCN(CC)C(=O)Oc1cccc2c1C(=O)C1=CC3CC4C(C)(C)OC(CC=C(C)C)(C3=O)C14O2 (stereo not shown)    1880
CC(C)=CCC12OC(C)(C)C3CC(C=C4C(=O)c5c(OC(=O)N6CCCCC6)cccc5OC431)C2=O (stereo not shown)    950

Enquiry: Please respond with reported IC50 (system HepG2) for CC(=O)Oc1cccc2c1C(=O)C1=CC3CC4C(C)(C)OC(CC=C(C)C)(C3=O)C14O2 (stereo not shown) .
Return: 1070

Enquiry: Please respond with reported IC50 (system HepG2) for COc1cccc2c1C(=O)c1c(O)c3c(c(O)c1C2=O)C[C@@](O)(C(=O)CO)C[C@@H]3O[C@H]1C[C@H](N)[C@H](O)[C@H](C)O1 [Doxorubicin, reference compound] .
Return: 280

Enquiry: Please respond with reported IC50 (system HepG2) for CCOC(=O)COc1cccc2c1C(=O)C1=CC3CC4C(C)(C)OC(CC=C(C)C)(C3=O)C14O2 (stereo not shown) .
Return: 12700

Enquiry: Please respond with reported IC50 (system HepG2) for CC(C)=CCC12OC(C)(C)C3CC(C=C4C(=O)c5c(OC(=O)N6CCCC6)cccc5OC431)C2=O (stereo not shown) .
Return: 990

---

Each item that follows carries a reported solubility.
assay: Water solubility by HPLC; format: physicochemical; details: thermodynamic from solid; deionized water, stirred overnight, HPLC 290 nm; read-out: S, water solubility
Number in µM, nothing else.

Below: 2 compounds and their reported solubility.
CCN(CC)C(=O)Oc1cccc2c1C(=O)C1=CC3CC4C(C)(C)OC(CC=C(C)C)(C3=O)C14O2 (stereo not shown)    30
CC(C)=CCC12OC(C)(C)C3CC(C=C4C(=O)c5c(OCC(=O)O)cccc5OC431)C2=O (stereo not shown)    30

Proceeding to the next compound to report its solubility.
Enquiry: # return recorded solubility for entry CC(C)=CCC12OC(C)(C)C3CC(C=C4C(=O)c5c(OC(=O)N6CC=CC6)cccc5OC431)C2=O (stereo not shown)
Return: 20

---

Each item that follows carries a reported IC50.
system: A549/taxol; test: MTT antiproliferative assay, Taxol-resistant A549; assay type: cell-based; settings: A549/Taxol, 72 h, read-out: IC50 A549/taxol, MTT, 72 h; Taxol-resistant A549
Put your answer as a value accompanied by its unit after it.

CC(C)=CCC12OC(C)(C)C3CC(C=C4C(=O)c5c(OC(=O)N(C)C)cccc5OC431)C2=O (centres unmarked)    650 nM

Proceeding to the next compound to report its IC50.
Enquiry: # return recorded IC50 for entry CCN(C)C(=O)Oc1cccc2c1C(=O)C1=CC3CC4C(C)(C)OC(CC=C(C)C)(C3=O)C14O2 (centres unmarked)
Return: 660 nM

---

assay: Water solubility by HPLC; type: physicochemical; conditions: thermodynamic from solid; deionized water, stirred overnight, HPLC 290 nm; read-out: S, water solubility
quantity-measured: solubility (µM)
Number in µM, nothing else.

Below: 2 molecules and their reported solubility.
CC(C)=CCC12OC(C)(C)C3CC(C=C4C(=O)c5c(OC(=O)N(C(C)C)C(C)C)cccc5OC431)C2=O (stereo not drawn) [Compound 8k]    30
CC(C)=CCC12OC(C)(C)C3CC(C=C4C(=O)c5c(OC(=O)N6CCCCC6)cccc5OC431)C2=O (stereo not drawn) [Compound 8f]    50

Proceeding to the next molecule to report its solubility.
Enquiry: # return recorded solubility for entry CC(C)=CCC12OC(C)(C)C3CC(C=C4C(=O)c5c(OC(=O)N6CCOCC6)cccc5OC431)C2=O (stereo not drawn) [Compound 8d]
Return: 40

---

tested on: HCT116; test: MTT antiproliferative assay, HCT116; details: Homo sapiens, HCT-116, 72 h, read-out: IC50 HCT116
quantity-measured: pIC50
pIC50 is defined as minus the log10 of a concentration measured in mol/L.

CC(C)=CCC12OC(C)(C)C3CC(C=C4C(=O)c5c(OC(=O)N6CCCC6)cccc5OC431)C2=O (stereo not shown) [Compound 8e]    5.97
COc1cccc2c1C(=O)C1=CC3CC4C(C)(C)OC(CC=C(C)C)(C3=O)C14O2 (stereo not shown) [Compound 3]    5.21
CC(C)=CCC12OC(C)(C)C3CC(C=C4C(=O)c5c(OC(=O)N6CCOCC6)cccc5OC431)C2=O (stereo not shown) [Compound 8d]    6.15
CCOC(=O)COc1cccc2c1C(=O)C1=CC3CC4C(C)(C)OC(CC=C(C)C)(C3=O)C14O2 (stereo not shown) [Compound 4]    5.09
CCN(CC)C(=O)Oc1cccc2c1C(=O)C1=CC3CC4C(C)(C)OC(CC=C(C)C)(C3=O)C14O2 (stereo not shown) [Compound 8b]    5.54

Proceeding to the next compound to report its pIC50.
Enquiry: # return recorded pIC50 for entry CC(=O)Oc1cccc2c1C(=O)C1=CC3CC4C(C)(C)OC(CC=C(C)C)(C3=O)C14O2 (stereo not shown) [Compound 1]
Return: 5.83

---

assay: Water solubility by HPLC; type: physicochemical; conditions: deionized water, stirred overnight, HPLC 290 nm
Each item that follows carries a reported S, water solubility.
Number in mM, nothing else.

CC(C)=CCC12OC(C)(C)C3CC(C=C4C(=O)c5c(OC(=O)N6CCN(C)CC6)cccc5OC431)C2=O (stereo not shown) [Compound 8m]    0.64

Proceeding to the next molecule to report its S, water solubility.
Enquiry: # return recorded S, water solubility for entry CC(C)=CCC12OC(C)(C)C3CC(C=C4C(=O)c5c(OC(=O)N6CCC(N7CCCCC7)CC6)cccc5OC431)C2=O (stereo not shown) [Compound 8l]
Return: 0.08
